Reference for the values: ChEMBL document CHEMBL1201862

Answer each item with its documented IC50.
- TEST TARGET: Protein skinhead-1 (Caenorhabditis elegans, UniProt P34707)
- Sequence (P34707 whole entry): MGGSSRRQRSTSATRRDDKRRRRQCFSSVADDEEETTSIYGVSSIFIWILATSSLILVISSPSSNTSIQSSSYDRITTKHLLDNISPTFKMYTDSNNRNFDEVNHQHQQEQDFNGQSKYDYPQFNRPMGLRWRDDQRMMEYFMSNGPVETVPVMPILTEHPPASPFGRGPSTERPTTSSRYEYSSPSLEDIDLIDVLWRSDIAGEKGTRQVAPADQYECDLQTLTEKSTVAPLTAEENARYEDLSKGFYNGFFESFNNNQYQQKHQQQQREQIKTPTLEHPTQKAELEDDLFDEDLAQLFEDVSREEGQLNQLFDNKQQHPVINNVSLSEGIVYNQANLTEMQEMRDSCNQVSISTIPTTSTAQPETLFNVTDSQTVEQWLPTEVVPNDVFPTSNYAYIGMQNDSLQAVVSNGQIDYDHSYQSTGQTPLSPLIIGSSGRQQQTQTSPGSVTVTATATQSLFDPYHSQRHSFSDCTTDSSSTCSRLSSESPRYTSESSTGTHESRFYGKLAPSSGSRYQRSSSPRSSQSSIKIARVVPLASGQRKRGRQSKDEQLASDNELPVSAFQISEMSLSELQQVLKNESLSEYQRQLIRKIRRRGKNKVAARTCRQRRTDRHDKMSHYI
- Assay type: functional
Activity calls are given as the source filed them.

Prompt: // Input: CC(C)c1ccc(NC(=O)NCc2cccnc2)cc1 . Output its IC50 only.
Response: > 100 µM (inactive)

Prompt: // Input: c1cc(CNc2ccc3c(c2)OCO3)ccn1 . Output its IC50 only.
Response: > 100 µM (inactive)

Prompt: // Input: COC(=O)C1=C(C)N=C(C)/C(=C(/O)OC)C1c1ccc(OC(=O)c2ccco2)cc1 (centres undefined) . Output its IC50 only.
Response: > 100 µM (inactive)

Prompt: // Input: Cc1cccc(Cn2c(Sc3nc(C)cs3)nc3c2c(=O)[nH]c(=O)n3C)c1 . Output its IC50 only.
Response: > 100 µM (inactive)

Prompt: // Input: C=CCNc1nc(-c2ccc(Cl)cc2)cs1 . Output its IC50 only.
Response: > 100 µM (inactive)

Prompt: // Input: O=[N+]([O-])c1ccccc1-c1nc(-c2ccc(Br)o2)no1 . Output its IC50 only.
Response: 69.1 µM (inactive)

Prompt: // Input: COC(=O)c1[nH]c(C)c(C(=O)C2=C(O)C(=O)N(CCCN3CCOCC3)C2c2ccccn2)c1C (centres undefined) . Output its IC50 only.
Response: > 100 µM (inactive)

Prompt: // Input: O=C(Nc1ccccc1)OCCCc1ccccc1 [3-PHENYLPROPYL PHENYLCARBAMATE] . Output its IC50 only.
Response: 68.6 µM (inactive)

Prompt: // Input: Cc1c(C(=O)NCCC2=CCCCC2)oc2ccc(S(=O)(=O)N3CCOCC3)cc12 . Output its IC50 only.
Response: > 100 µM (inactive)
